- TEST_DETAILS: reversal of MRP1-mediated doxorubicin resistance, pilot screen, H69AR cells, doxorubicin co-treatment (AID 601)
- REPORTED_CONDITIONS: H69AR cells + 2 uM doxorubicin, CellTiter-Glo, 72 h; at 10 µM; stronger effect = higher value

MOLECULE	differential viability (reversal) [%]
Cn1c(=O)c2c(ncn2CC(O)CO)n(C)c1=O (stereo unspecified)	12.3
COc1cccc(NC(=O)C2CCCN2C(=O)Nc2cccc(F)c2)c1 (stereo unspecified)	8.87
CC1CCCC(C)N1CCNC(=O)C1CCN(S(=O)(=O)N2CCCCC2)CC1 (stereo unspecified)	13.1
Cc1cc(NC(=O)c2ccc3nc(-c4ccccc4)c(-c4ccccc4)nc3c2)no1	-1.37
CCN1C(=O)C2(C(C#N)=C(N)Oc3n[nH]c(C(C)C)c32)c2ccccc21 (stereo unspecified)	-1.03
Cc1cc(C)c2oc(=O)cc(CN3CCOCC3)c2c1	3.58
Cc1c(NS(=O)(=O)c2ccc3c(c2)n(C)c(=O)n3C)c(=O)n(-c2ccccc2)n1C	3.4
CNCCC(Oc1ccc(C(F)(F)F)cc1)c1ccccc1 (stereo unspecified)	-6.63
Cc1nc2ccc(S(=O)(=O)NCC(=O)N(C)Cc3ccco3)cc2s1	9.31
COc1ccccc1CC(=O)NCc1ccc2c(c1)OCO2	9.18
CCCCCCn1c(CN2CCN(Cc3ccccc3)CC2)nc2c1c(=O)n(C)c(=O)n2C	38.8
